Collected pIC50 values appear next to each entry.
- ASSAY_TARGET: NLRP3 (Homo sapiens, UniProt Q96P20)
- Sequence (Q96P20 whole entry): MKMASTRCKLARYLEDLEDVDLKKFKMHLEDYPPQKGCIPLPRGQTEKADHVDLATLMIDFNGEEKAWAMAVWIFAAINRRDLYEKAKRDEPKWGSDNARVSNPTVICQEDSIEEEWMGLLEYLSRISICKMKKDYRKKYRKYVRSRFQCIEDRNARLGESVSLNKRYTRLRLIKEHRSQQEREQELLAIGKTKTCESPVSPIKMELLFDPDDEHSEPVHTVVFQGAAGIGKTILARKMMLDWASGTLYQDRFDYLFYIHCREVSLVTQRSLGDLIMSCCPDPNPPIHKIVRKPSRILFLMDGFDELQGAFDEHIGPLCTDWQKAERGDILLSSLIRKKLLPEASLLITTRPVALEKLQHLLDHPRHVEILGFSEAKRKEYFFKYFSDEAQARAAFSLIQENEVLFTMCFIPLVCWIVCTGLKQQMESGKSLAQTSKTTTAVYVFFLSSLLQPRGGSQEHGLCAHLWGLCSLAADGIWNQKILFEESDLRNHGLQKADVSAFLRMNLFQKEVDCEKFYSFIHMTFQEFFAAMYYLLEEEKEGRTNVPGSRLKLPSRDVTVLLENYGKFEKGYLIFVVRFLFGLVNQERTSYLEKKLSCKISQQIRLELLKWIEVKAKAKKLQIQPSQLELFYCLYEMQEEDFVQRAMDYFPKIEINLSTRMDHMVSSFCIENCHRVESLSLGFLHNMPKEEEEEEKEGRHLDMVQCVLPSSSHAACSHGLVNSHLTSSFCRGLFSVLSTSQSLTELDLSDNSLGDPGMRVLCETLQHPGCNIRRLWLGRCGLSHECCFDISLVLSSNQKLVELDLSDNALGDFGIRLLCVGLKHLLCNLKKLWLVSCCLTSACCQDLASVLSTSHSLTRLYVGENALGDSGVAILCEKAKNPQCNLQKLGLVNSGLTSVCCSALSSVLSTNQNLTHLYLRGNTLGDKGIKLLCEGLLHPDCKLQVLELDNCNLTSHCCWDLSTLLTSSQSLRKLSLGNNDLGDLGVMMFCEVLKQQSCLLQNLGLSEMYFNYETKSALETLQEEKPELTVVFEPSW
- MEASUREMENT_NOTES: THP-1 cells pyroptosis assay
- Type: cell-based
- Parameters: Seed THP-1 cells (25,000 cells/well) containing 1.0 μg/ml LPS; host or cells: THP-1
- REPORTED_CONDITIONS: LPS 1.0 μg/ml, nigericin 5 μM, resazurin readout, 10 μM top dose (Example 2: top dose of 30 μM)
pIC50: −log10 of the molar value.

Worked set:
CC(O)Cn1cc(S(=O)(=O)c2nnc(Nc3c4c(cc5c3CCC5)CCC4)[nH]2)cn1 (stereo not shown) [Example 353] ... ≥ 5.30
CN(C)CC1CCCN(S(=O)(=O)c2nnc(Nc3c4c(cc5c3CCC5)CCC4)[nH]2)C1 (stereo not shown) [Example 305] ... ≥ 5.30

Then there is this compound:
Exercise: I'm curious: which pIC50 was measured for O=S(=O)(c1nnc(Nc2c3c(cc4c2CCC4)CCC3)[nH]1)N1CC(N2CCCC2)C1 [Example 136] tested on NLRP3 (Homo sapiens, UniProt Q96P20)?
Solution: ≥ 6.30

* * *

Collected IC50 values appear next to each entry.
- ASSAY_TARGET: NLRP3 (Homo sapiens)
- MEASUREMENT_NOTES: Human whole blood IL1β release assay
- Format: cell-based
- REPORTED_CONDITIONS: LPS 1 μg/ml, nigericin 10 μM, IL-1β AlphaLisa, 10 μM top dose (Example 2: top dose of 30 μM), read-out: HWB IC50

CN(C)C1CCCN(S(=O)(=O)c2nnc(Nc3c4c(cc5c3CCC5)CCC4)[nH]2)CC1 (stereo not shown) [Example 271] ... ≤ 1 µM
CN(C)CC1CCN(S(=O)(=O)c2nnc(Oc3c4c(cc5c3CCC5)CCC4)[nH]2)C1 (stereo not shown) [Example 286] ... ≤ 10 µM
NS(=O)(=O)c1ccc(S(=O)(=O)c2nnc(Nc3c4c(cc5c3CCC5)CCC4)[nH]2)cc1 [Example 366] ... ≤ 10 µM
COc1cc(-c2cc(F)cc(C(C)C)c2Nc2nnc(S(=O)(=O)N3CC4(CCN(C)C4)C3)[nH]2)ccn1 [Example 248] ... ≤ 1 µM
O=S(=O)(c1nnc(Nc2c3c(cc4c2CCC4)CCC3)[nH]1)N1CCC2(CCOC2)CC1 [Example 360] ... ≤ 5 µM
CC(C)c1cc(F)cc(-c2ccncc2)c1Oc1nnc(S(=O)(=O)N2CCC(CN(C)C)C2)[nH]1 (stereo not shown) [Example 152] ... ≤ 5 µM

Exercise: Consider the compound CC(C)N1CCN(S(=O)(=O)c2nnc(Nc3c4c(cc5c3CCC5)CCC4)[nH]2)CC1 [Example 117] and give its measured IC50.
Solution: ≤ 5 µM

Exercise: Consider the compound COc1cc(-c2cc(F)cc(C(C)C)c2Nc2nnc(S(=O)(=O)N3CCC4(CCCN4C)CC3)[nH]2)ccn1 [Example 260] and give its measured IC50.
Solution: ≤ 5 µM

Exercise: Consider the compound CC(C)c1cc(F)cc(C(C)C)c1Nc1nnc(S(=O)(=O)N2CCC3(CCCN3C)CC2)[nH]1 [Example 247] and give its measured IC50.
Solution: ≤ 0.5 µM

Exercise: Consider the compound COC1(c2cc(S(=O)(=O)c3nnc(Nc4c5c(cc6c4CCC6)CCC5)[nH]3)nn2C)COC1 [Example 12] and give its measured IC50.
Solution: ≤ 10 µM

* * *

- ASSAY_TARGET: NLRP3 (Homo sapiens)
- MEASUREMENT_NOTES: THP-1 cells pyroptosis assay
- Type: cell-based
- Parameters: Seed THP-1 cells (25,000 cells/well) containing 1.0 μg/ml LPS; host or cells: THP-1
- REPORTED_CONDITIONS: LPS 1.0 μg/ml, nigericin 5 μM, resazurin readout, 10 μM top dose (Example 2: top dose of 30 μM)
QUANTITY: IC50

Worked set:
O=S(=O)(c1ccccc1)c1nnc(Nc2c(-c3ccncc3)ccc3c2CCC3)[nH]1 [Example 189] ... ≤ 10 µM
CN1CCC2(CC1)CN(S(=O)(=O)c1nnc(Nc3c4c(cc5c3CCC5)CCC4)[nH]1)C2 [Example 275] ... ≤ 5 µM
COc1cc(-c2c(C)cc3c(c2Nc2nnc(S(=O)(=O)N4CCC(N(C)C)CC4)[nH]2)CCC3)ccn1 [Example 216] ... ≤ 0.5 µM
CNC(=O)C1CCN(S(=O)(=O)c2nnc(Nc3c4c(cc5c3CCC5)CCC4)[nH]2)C1 (stereo not shown) [Example 140] ... ≤ 5 µM

Exercise: Consider the molecule O=c1cccc(CNS(=O)(=O)c2nnc(Nc3c4c(cc5c3CCC5)CCC4)[nH]2)[nH]1 [Example 103] and give its measured IC50.
Solution: ≤ 5 µM

Exercise: Consider the molecule O=S(=O)(c1nnc(Nc2c3c(cc4c2CCC4)CCC3)[nH]1)N1CCC2(CCOC2)CC1 [Example 360] and give its measured IC50.
Solution: ≤ 0.5 µM

Exercise: Consider the molecule COc1cc(-c2cc(F)cc(C(C)C)c2Nc2nnc(S(=O)(=O)N3CCC4(CCCN4C)CC3)[nH]2)ccn1 [Example 260] and give its measured IC50.
Solution: ≤ 0.5 µM

* * *

- ASSAY_TARGET: UniProt:Q96P20
- MEASUREMENT_NOTES: Human whole blood IL1β release assay
- Format: cell-based
- REPORTED_CONDITIONS: LPS 1 μg/ml, nigericin 10 μM, IL-1β AlphaLisa, 10 μM top dose (Example 2: top dose of 30 μM), read-out: HWB IC50
QUANTITY: IC50

Worked set:
O=S(=O)(c1nnc(Nc2c3c(cc4c2CCC4)CCC3)[nH]1)N1CC2(CNC2)C1 [Example 150] ... ≤ 5 µM
CC(C)c1cc(F)cc(-c2ccncc2)c1Cc1nnc(S(=O)(=O)N2CCC(CN(C)C)C2)[nH]1 (stereo not shown) [Example 153] ... ≤ 5 µM
[2H]C([2H])([2H])Oc1cc(-c2ccc3c(c2Nc2nnc(S(=O)(=O)N4CC[C@H](C(C)(C)O)C4)[nH]2)CCO3)ccn1 [Example 343] ... ≤ 1 µM

Then there is this compound:
Exercise: Consider the compound CN(C)C1CCN(S(=O)(=O)c2nnc(Nc3c(-c4ccnc(C5CC5)c4)ccc4c3CCC4)[nH]2)CC1 [Example 199] and give its measured IC50.
Solution: ≤ 5 µM

* * *

- ASSAY_TARGET: NLRP3 (Homo sapiens, UniProt Q96P20)
- MEASUREMENT_NOTES: THP-1 cells pyroptosis assay
- Assay type: cell-based
- Parameters: Seed THP-1 cells (25,000 cells/well) containing 1.0 μg/ml LPS; host or cells: THP-1
- REPORTED_CONDITIONS: LPS 1.0 μg/ml, nigericin 5 μM, resazurin readout, 10 μM top dose (Example 2: top dose of 30 μM)
pIC50: −log10 of the molar value.
Collected pIC50 values appear next to each entry.

Worked set:
CCN(CC)CCS(=O)(=O)c1nnc(Nc2c3c(cc4c2CCC4)CCC3)[nH]1 ... ≥ 6.00
C[C@@H](CN(C)C)NS(=O)(=O)c1nnc(Nc2c3c(cc4c2CCC4)CCC3)[nH]1 ... ≥ 5.00
O=S(=O)(c1ccccn1)c1nnc(Nc2c3c(cc4c2CCC4)CCC3)[nH]1 ... ≥ 6.00

Then there is this compound:
Exercise: I'm curious: which pIC50 was measured for CN1CCC12CCN(S(=O)(=O)c1nnc(Nc3c(-c4ccnc(OC(F)F)c4)ccc4c3CCO4)[nH]1)CC2 tested on NLRP3 (Homo sapiens, UniProt Q96P20)?
Solution: ≥ 6.30

* * *

- ASSAY_TARGET: NLRP3 (Homo sapiens)
- MEASUREMENT_NOTES: THP-1 cells pyroptosis assay
- Type: cell-based
- Set-up: Seed THP-1 cells (25,000 cells/well) containing 1.0 μg/ml LPS; host or cells: THP-1
- REPORTED_CONDITIONS: LPS 1.0 μg/ml, nigericin 5 μM, resazurin readout, 10 μM top dose (Example 2: top dose of 30 μM)
- Method: THP-1 cells (ATCC #TIB-202) were grown in RPMI containing L-glutamine (Gibco #11835) supplemented with imM sodium pyruvate (Sigma #S8636) and penicillin (100 units/ml)/streptomycin (0.1 mg/ml) (Sigma #P4333) in 10% Fetal Bovine Serum (FBS) (Sigma #F0804). […] The cells were then counted and viability (>90%) checked by Trypan blue (Sigma #T8154). […] The following method step-by-step assay was followed for compound screening. • 1. […] Plates were read in an Envision reader at Ex 560 nm and Em 590 nm • 9. […]
pIC50: −log10 of the molar value.
QUANTITY: pIC50

CN1CCCC12CCN(S(=O)(=O)c1nnc(Nc3c(-c4ccnc(OC(F)F)c4)ccc4c3CCC4)[nH]1)CC2 ... ≥ 6.30
N#Cc1c2c(c(Nc3nnc(S(=O)(=O)c4ccccc4)[nH]3)c3c1CCC3)CCC2 ... ≥ 5.30
CN(C)CC1CCN(S(=O)(=O)c2nnc(Oc3c4c(cc5c3CCC5)CCC4)[nH]2)C1 (stereo not shown) ... ≥ 5.30

Then there is this compound:
Exercise: Consider the compound CC(C)c1cc(F)cc(-c2ccnc(OC3CCN(C)CC3)c2)c1Nc1nnc(S(C)(=O)=O)[nH]1 and give its measured pIC50.
Solution: ≥ 5.30
